Tested on: PXR:RXRa (NR concentration 270 nM, RXRa partner concentration 90 nM)
Assay: PBM binding z-score (relative to random genomic background probes); higher = stronger binding; sequences stand for … in GC…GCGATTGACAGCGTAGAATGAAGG
Experimental readout: PBM binding z-score

{"columns": ["Record sequence", "Tgt", "Experimental readout", "Value observed"],
 "data": [
  ["ATCTCTAGGTAAGAAGTTCAGTGAAAGAGAGGAC", "PXR:RXRa (NR concentration 270 nM, RXRa partner concentration 90 nM)", "PBM binding z-score", 0.898],
  ["TTACCAAGGTGAGCTGAGCTCGTTGATCCAACTC", "PXR:RXRa (NR concentration 270 nM, RXRa partner concentration 90 nM)", "PBM binding z-score", -0.427],
  ["TTACCAAGGTGAAGGGTCGTTGATGCACGCCTTG", "PXR:RXRa (NR concentration 270 nM, RXRa partner concentration 90 nM)", "PBM binding z-score", 1.57],
  ["TGAATGAGGTTAAAGATCAGGGCACGTGGCGTCG", "PXR:RXRa (NR concentration 270 nM, RXRa partner concentration 90 nM)", "PBM binding z-score", 2.32],
  ["TTACCAAGGTGAGCAGAGGTCGTTGATCCAACTC", "PXR:RXRa (NR concentration 270 nM, RXRa partner concentration 90 nM)", "PBM binding z-score", 4.23],
  ["CGTCAAAGTTCAAGGTAGCGTAACAGAAAGCAGC", "PXR:RXRa (NR concentration 270 nM, RXRa partner concentration 90 nM)", "PBM binding z-score", 3.84],
  ["CCAGACAGGTGACAGGTAACTCAGTCTGGTACGC", "PXR:RXRa (NR concentration 270 nM, RXRa partner concentration 90 nM)", "PBM binding z-score", -0.209],
  ["CCGACTGGGGCAGAACGGTTACCATACCATCCGG", "PXR:RXRa (NR concentration 270 nM, RXRa partner concentration 90 nM)", "PBM binding z-score", -0.96],
  ["CCTAGTTGGTCAGGAGGTCACACGCCGGATATGA", "PXR:RXRa (NR concentration 270 nM, RXRa partner concentration 90 nM)", "PBM binding z-score", 4.12],
  ["GCATATAGGTAATACAAGGTGAGAGTCCGATTGT", "PXR:RXRa (NR concentration 270 nM, RXRa partner concentration 90 nM)", "PBM binding z-score", 0.114],
  ["GCTAGTTGGTCAGTAAAAGGTCACACACCGGTCG", "PXR:RXRa (NR concentration 270 nM, RXRa partner concentration 90 nM)", "PBM binding z-score", 4.95],
  ["ACTATTAGTTGAGACGTGGGCAACCGATAGGTTG", "PXR:RXRa (NR concentration 270 nM, RXRa partner concentration 90 nM)", "PBM binding z-score", -0.64]
]}

* * *

Tested on: THRa homodimer (NR concentration 90 nM)
Test: PBM binding z-score (relative to random genomic background probes); higher = stronger binding; sequences stand for … in GC…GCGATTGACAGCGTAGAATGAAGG
Class membership depends on PBM binding z-score alone; the intervals are L = under 0.06, M = from 0.06 up to 0.8, H = 0.8 and over

{"columns": ["Record sequence", "Group label"],
 "data": [
  ["GGAACGAGGGCAAGTTAATAGCAGAGTTTGATGG", "L"],
  ["TGAATCAGGTTATAAGATCAGGGAACGTTGCAAA", "L"],
  ["TCTGCTAGGTCAGCTGGTCAGCTAACGAGCTGCC", "L"],
  ["ACTAGCAGGCCAAGTTTGGGTCAATCAAACAAAG", "M"],
  ["GATACAGGGTCAACGCCAGAGTACGCGTATTGAT", "H"],
  ["TCATATAGGTAAATGCTAGGTGAAAGTGCGATCT", "M"],
  ["TCTTGTAGATCAAGCCGGTTAAGAAAGCCTGAGT", "L"],
  ["CAAACTAGGTCACGAAAGGTCAAGGTCGAATGAC", "H"],
  ["CGTCCAAGGTCAATGCTGGGTCAGTGAAAGCATT", "H"],
  ["CCTGCTAGGTCCATGGTCAGCTAAAGCAGCTCGC", "L"],
  ["TTACCAAGGTGAAGGTCGTTGCTCCCTCTGTAGA", "H"],
  ["GCTTACGGGTCACAGGTTATAGCATGAATAGAAT", "M"],
  ["TGAATGAGGTTATAAGATCAGGGATCGTTGCAAA", "M"],
  ["TATACAGGGTCATAGGCCAGAGTACGAATGTCGA", "M"],
  ["GCTAGTTGGTCAGTAAAAGGTCAGACACCGGTCG", "M"],
  ["CCTCGGAGGACAACAGTAGGTCAGAGCTGCCAGA", "M"],
  ["TGAATGAGGTTATAAGATAAGGGAACGTTGCAAA", "L"],
  ["AGTCAAAGTTCAGGACGAGGTAACGTAAAGCACG", "H"],
  ["GCGGACAGGTGAAACGCAGGTAACTCAGGGTGGC", "L"],
  ["CCTACTGGGCCACCAGGTCATTGATATCAACGTT", "H"],
  ["ATCTCTAGTTAAAGATAGTTCAGTGAATGCAAAT", "M"],
  ["AGAACGATGGCACGCTGAGTTGATAGCAGAGTAG", "L"],
  ["GGTACGAGGGCAAGTTGATAGCAGAGTTTGATGG", "M"],
  ["CATACTAGGTCAAGGTCAAAGTCGGTTTGTGCCA", "H"]
]}

* * *

System: RARg homodimer (NR concentration 270 nM)
Test: PBM binding z-score (relative to random genomic background probes); higher = stronger binding; sequences stand for … in GC…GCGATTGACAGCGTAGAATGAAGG

{"columns": ["Record sequence", "PBM binding z-score"],
 "data": [
  ["CCTACTGGACCATTCAGAGGTCATTGATCATATG", 2.94],
  ["ATGTGTAGGTTAGCTGGGGTCATTCAGACTAGGC", 3.19],
  ["CAAACTAAGTCACGAAAGGTCAAAGTCGAATGAC", 5.67],
  ["GATACAGGGTCAGCTAGAGGCCAGTGTATGGAAA", 5.06],
  ["CCAGACAGATGAGAAGGTAACTCAGCCTCGATTA", 0.416],
  ["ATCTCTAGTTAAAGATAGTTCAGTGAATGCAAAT", 0.66],
  ["ATCGAAAGGTCGAGGTGAGTTTAGAGAAAGGGAA", 4.68],
  ["GGAACGACGGCAAGTTGATAGCAGAGTTTGATGG", -0.0502],
  ["CTCGCAAGGTCGGTTGAGGTGAGTATACGGATAA", 1.25],
  ["AATACATGGTCACTAGGCCAGAGTAGGTACGAAT", 1.01],
  ["CTCGAGAGGTCGTGCTCAGGTGAGTATACCAAAC", 2.53],
  ["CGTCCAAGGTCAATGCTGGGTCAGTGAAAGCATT", 6.47]
]}
